# EC50 values compiled below
target: T1, human Claudin18.2 (human); assay: cell ELISA, Claudin18.2-expressing HEK293T cells
T1 construct: also called CLDN18.2

Use these answered entries as a reference point.
- binder: "244A1B8 (antibody, V domains shown, mouse hybridoma mAb) VH: QAYLQQSGAELVRSGASVKMSCKASGYTFTSHNIHWVKQTPGQGLEWIGYIYPGNGAPNYNQKFRGKATLTADTSSSTAYMQISSLTSEDSAVYFCARDYYGNSFVYWGQGTLVTVSA VL: DIVMTQSPSSLTEKAGEKVSMSCKSSQSLLNSGNQKNYLTWYQQKPGQPPKLLIYWASTRESGVPDRFTGSGSGTDFTLTISSVQAEDLAVYYCQNDYRYPFTFGAGTKLELK"
  valueObserved: "~0.439 nM"
- binder: "407D8G1 (antibody, V domains shown, mouse hybridoma mAb) VH: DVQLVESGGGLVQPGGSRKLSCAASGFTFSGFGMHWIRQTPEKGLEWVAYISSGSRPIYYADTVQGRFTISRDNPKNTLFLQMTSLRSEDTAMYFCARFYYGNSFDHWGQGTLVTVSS VL: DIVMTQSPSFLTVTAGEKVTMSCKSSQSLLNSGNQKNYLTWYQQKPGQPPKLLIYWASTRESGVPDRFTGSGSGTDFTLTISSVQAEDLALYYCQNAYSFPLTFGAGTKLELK"
  valueObserved: "2.38 nM"
- binder: "286C7F11 (antibody, V domains shown, mouse hybridoma mAb) VH: QVQLKESGPGLVAPSQSLSITCTVSGFSLTDYGVSWIRQPPGKGLEWLGVIWNRGNTYYNSALKSRLSISKDNSKSQVFLRMNSLQTDDTAMYYCAKHDFLRFLDYWGQGTTLTVSS VL: DVVMTQSPSSLTVTAGEKVTMSCKSSQSLLNSGNQKNYLTWYQQKPGQPPKILIYWASTRESGVPDRFTGSGSGTDFSLTITSVQAEDLAVYYCLNDYYYPLTFGAGTKLELK"
  valueObserved: "~0.0831 nM"
- binder: "418B8B10 (antibody, V domains shown, mouse hybridoma mAb) VH: DVQLVESGGGLVQPGGSRKLSCAASGFTFSSFGMHWVRQAPEKGLEWVAYISSGSSPIYYTDTVKGRFTISRDNPKNTLFLQMTSLRSEDTAMYFCARFYYGNSFDHWGQGTLVTVSA VL: DIVMTQSPSSLTVTAGEKVSMSCKSSQSLFNRGNQKSYLTWYQQRPGQPPKLLIYWASTRESGVPDRFTGSGSGTDFTLTISSVQAEDLAVYYCQNNYIYPLTFGAGTKLELK"
  valueObserved: "3.17 nM"

The record that follows has no EC50 shown yet.
QUERY: Name the recorded EC50 of the binder listed here: 243F6D2 (antibody, V domains shown, mouse hybridoma mAb) VH: QAYLQQSGAELVRSGASVKMSCRASGYTFTSHNMHWVKQTPGQGLEWIGYIYPGNGGTYYNQKFKGKATLTADTSSSTAYMQISSLTSEDSAVYFCARDYYGNSFVYWGQGTLVTVSA VL: DVVMTQSPSSLTEKTGEKVSMSCKSSQSLLNSGNQKNYLTWYQQKPGQPPKLLIYWASTRESGVPDRFTGSGSGTDFTLTISSLQTEDLAVYYCQNNYRYPFTFGAGTKLELK
RESULT: 0.96 nM

Ref: patent US20220073643A1
